Where these numbers come from: patent US20260266848A1

Tested on: WT MEF EVs
Assay: Quantitative LC-MS/MS proteomics of EVs from ISRIB-treated WT MEF cultures
Type: cell-based, mouse
Parameters: key: YES = protein abundance effect similar to DYT/WT
Settings: EV protein abundance, WT + ISRIB vs WT, direction compared with DYT/WT
MEASURE NAME: ISRIB and DYT Parallel Direction

[
  {
    "MOLECULE": "Cyb5r3 (protein, UniProt Q9DCN2 2-301, looked up) NADH-cytochrome b5 reductase 3: GAQLSTLSHVVLSPVWFIYSLFMKLFQRSTPAITLENPDIKYPLRLIDKEVISPDTRRFRFALPSPQHILGLPIGQHIYLSTRIDGNLVIRPYTPVSSDDDKGFVDLVVKVYFKDTHPKFPAGGKMSQYLENMKIGDTIEFRGPNGLLVYQGKGKFAIRADKKSNPVVRTVKSVGMIAGGTGITPMLQVIRAVLKDPNDHTVCYLLFANQSEKDILLRPELEELRNEHSARFKLWYTVDKAPDAWDYSQGFVNEEMIRDHLPTPGEEPLILMCGPPPMIQFACLPNLERVGHPKERCFTF",
    "RESULT": "YES"
  },
  {
    "MOLECULE": "Gmpr2 (protein, UniProt Q99L27 1-348, looked up) GMP reductase 2: MPHIDNDVKLDFKDVLLRPKRSTLKSRSEVELTRSFSFRNSKQMYSGIPVIAANMDTVGTFEMARVLCKFSLFTAIHKHYSIHQWQEFASQNPDCLECLAASSGSGSADFEQLEQILEAIPQVKYICLDVANGYSEHFVEFVKDVRKRFPQHTIMAGNVVTGEMVEELILSGADIIKVGIGPGSVCTTRKKTGVGYPQLSAVMECADAAHGLKGHIISDGGCSCPGDVAKAFGAGADFVMLGGMLAGHSESGGELIERDGKKYKLFYGMSSEMAMKKYSGGVAEYRASEGKIVEVPFKGDVEHTIRDILGGIRSTCTYVGAAKLKELSRRTTFIRVTQQVNPIFSNSQ",
    "RESULT": "YES"
  },
  {
    "MOLECULE": "Fth1 (protein, UniProt P09528 1-182, looked up) Ferritin heavy chain: MTTASPSQVRQNYHQDAEAAINRQINLELYASYVYLSMSCYFDRDDVALKNFAKYFLHQSHEEREHAEKLMKLQNQRGGRIFLQDIKKPDRDDWESGLNAMECALHLEKSVNQSLLELHKLATDKNDPHLCDFIETYYLSEQVKSIKELGDHVTNLRKMGAPEAGMAEYLFDKHTLGHGDES",
    "RESULT": "YES"
  }
]
